- measuredOn: T1, human MSLN-R2-his protein (human, UniProt Q13421 391-486)
- T1 construct: Self-made in HEK293E cells; also called human MSLN-R2 protein; hMSLN-R2-his; not shown: His tag
- methodDescription: ELISA on coated antigen, antibody 0.1 nM
Would you mind telling me the reported OD450 of each entry?
Only the number, expressed in OD450, is required.

Kindly note the recorded OD450 for S009-F2.21.4 (antibody, human IgG1, kappa, V domains shown, Human-murine chimeric antibody: murine VH/VL on human IgG1 heavy and kappa light constant regions) VH: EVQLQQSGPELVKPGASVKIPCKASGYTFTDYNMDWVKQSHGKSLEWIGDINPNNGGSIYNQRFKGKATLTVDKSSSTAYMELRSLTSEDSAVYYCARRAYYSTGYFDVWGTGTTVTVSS VL: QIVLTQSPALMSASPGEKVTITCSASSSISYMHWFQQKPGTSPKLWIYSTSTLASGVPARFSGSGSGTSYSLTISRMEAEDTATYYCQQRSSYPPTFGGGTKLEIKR , which is 0.05

OD450 reported for this binder S009-F2.47.1 (antibody, human IgG1, kappa, V domains shown, Human-murine chimeric antibody: murine VH/VL on human IgG1 heavy and kappa light constant regions) VH: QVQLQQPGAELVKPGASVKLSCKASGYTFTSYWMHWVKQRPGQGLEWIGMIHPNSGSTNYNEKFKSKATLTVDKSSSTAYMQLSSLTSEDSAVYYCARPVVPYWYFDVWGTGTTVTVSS VL: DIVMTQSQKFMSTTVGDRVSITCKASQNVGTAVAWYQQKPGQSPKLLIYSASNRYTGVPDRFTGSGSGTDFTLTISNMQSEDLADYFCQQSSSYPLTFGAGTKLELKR : 0.05

What the record says about S009-F2-56.12 (antibody, human IgG1, kappa, V domains shown, Human-murine chimeric antibody: murine VH/VL on human IgG1 heavy and kappa light constant regions) VH: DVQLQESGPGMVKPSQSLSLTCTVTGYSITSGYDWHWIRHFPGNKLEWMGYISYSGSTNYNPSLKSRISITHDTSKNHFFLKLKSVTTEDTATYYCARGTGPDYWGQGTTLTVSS VL: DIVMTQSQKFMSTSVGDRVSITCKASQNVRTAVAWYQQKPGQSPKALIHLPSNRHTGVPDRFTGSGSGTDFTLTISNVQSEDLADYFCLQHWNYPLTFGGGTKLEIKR : OD450 is 0.06

For record S009-F2.58.8 (antibody, human IgG1, kappa, V domains shown, Human-murine chimeric antibody: murine VH/VL on human IgG1 heavy and kappa light constant regions) VH: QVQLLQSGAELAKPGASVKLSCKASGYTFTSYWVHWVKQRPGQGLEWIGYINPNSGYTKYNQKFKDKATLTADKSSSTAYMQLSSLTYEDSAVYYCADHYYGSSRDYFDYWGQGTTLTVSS VL: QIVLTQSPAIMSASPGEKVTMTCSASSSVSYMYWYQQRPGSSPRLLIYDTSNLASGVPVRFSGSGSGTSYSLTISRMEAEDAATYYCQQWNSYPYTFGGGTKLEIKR the listed OD450 is 0.63

Sure, the documented OD450 for S009-F2.23.12 (antibody, human IgG1, kappa, V domains shown, Human-murine chimeric antibody: murine VH/VL on human IgG1 heavy and kappa light constant regions) VH: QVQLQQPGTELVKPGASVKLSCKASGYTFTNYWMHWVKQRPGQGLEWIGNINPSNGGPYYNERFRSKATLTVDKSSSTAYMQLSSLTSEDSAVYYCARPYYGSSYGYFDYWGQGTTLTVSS VL: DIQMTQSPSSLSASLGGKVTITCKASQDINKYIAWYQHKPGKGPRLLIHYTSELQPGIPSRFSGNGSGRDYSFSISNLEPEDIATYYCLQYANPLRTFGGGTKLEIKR is 0.05
